tested on: B-lymphocyte cancer cells (SU-DHL4); assay: In vitro potency (CellTiter-Glo, 96 h), SU-DHL-4; type: cell-based; conditions: Homo sapiens, SU-DHL-4, 96 h, read-out: SU-DHL-4 IC50, Table 28; CPT free drugs; B-lymphocyte cancer cells SU-DHL4; 96 h, CellTiter-Glo
MEASUREMENT_LABEL: IC50 (nM)
Give a bare numeral; the unit nM is implied.

Short answer for C=C(C)c1c(C)c(F)cc2nc3c(c(CN)c12)Cn1c-3cc2c(c1=O)COC(=O)[C@]2(O)CC : IC50 was 1

Lab note: CCc1c(C)c(F)cc2nc3c(c(CN)c12)Cn1c-3cc2c(c1=O)COC(=O)[C@]2(O)CC gave IC50 of 15

Reported IC50 of C=Cc1c(C)c(F)cc2nc3c(c(CN)c12)Cn1c-3cc2c(c1=O)COC(=O)[C@]2(O)CC : 1

Next:
The compound listed as CC[C@@]1(O)C(=O)OCc2c1cc1n(c2=O)Cc2c-1nc1cc3c(cc1c2CNC(C)=O)OCO3 [Compound 12b] has a reported IC50 of 1

For record CC[C@@]1(O)C(=O)OCc2c1cc1n(c2=O)Cc2c-1nc1cc(F)c(C)c(C=C(C)C)c1c2CN the listed IC50 is 2

For reference, reported IC50 for CC[C@@]1(O)C(=O)OCc2c1cc1n(c2=O)Cc2c-1nc1cc(F)c(C)c(Cl)c1c2CNC(=O)CN [Compound 13a] stands at 1

Summary for this compound, CC[C@@]1(O)C(=O)OCc2c1cc1n(c2=O)Cc2c-1nc1cc3c(c(Br)c1c2CN)OCO3 : IC50 is 0.5

----------
test system: renal carcinoma cells (786-O); experiment: In vitro potency (CellTiter-Glo, 96 h), 786-O; assay type: cell-based; settings: Homo sapiens, 786-0, 96 h, camptothecin free drug, 96 h; read-out: 786-O IC50
MEASUREMENT_LABEL: IC50 (nM)
// note: answer is a bare numeric in nM

// IC50 lookup, compound = CC[C@@]1(O)C(=O)OCc2c1cc1n(c2=O)Cc2c-1nc1cc3c(cc1c2CN)OCO3 [AMDCPT, reference compound] , result: 3

Field IC50 (entry CC[C@@]1(O)C(=O)OCc2c1cc1n(c2=O)Cc2c-1nc1cc3c(cc1c2CNCCCN1CCN(C(=O)OC(C)(C)C)CC1)OCO3 ) reads 139

Continuing:
Record CC[C@@]1(O)C(=O)OCc2c1cc1n(c2=O)Cc2c-1nc1cc3c(cc1c2CNCCN1CCN(C(=O)OC(C)(C)C)CC1)OCO3 , field IC50: 130

----------
system: anaplastic large cell lymphoma cells (Karpas299); assay: In vitro potency (CellTiter-Glo, 96 h), Karpas299; assay type: cell-based; conditions: Homo sapiens, KARPAS-299, 96 h, read-out: Karpas299 IC50, Table 28; CPT free drugs; anaplastic large cell lymphoma cells Karpas299; 96 h, CellTiter-Glo
API: label(entry) gives rule met if the entry's IC50 is strictly smaller than 5 nM; on equality or larger values it gives rule not met.

Consider the following illustrative entries.
Q: Criterion: IC50 strictly below 5 nM. Is it met by CC[C@@]1(O)C(=O)OCc2c1cc1n(c2=O)Cc2c-1nc1cc3c(c(Br)c1c2CN)OCO3 ?
Result: rule met

Q: Determine if C=Cc1c(C)c(F)cc2nc3c(c(CN)c12)Cn1c-3cc2c(c1=O)COC(=O)[C@]2(O)CC shows IC50 strictly lower than 5 nM.
Result: rule met

Q: Quick check: IC50 of CC[C@@]1(O)C(=O)OCc2c1cc1n(c2=O)Cc2c-1nc1cc3c(cc1c2CNC(=O)CN)CCO3 under 5 nM?
Result: rule not met

Q: IC50 under 5 nM? Item: CC[C@@]1(O)C(=O)OCc2c1cc1n(c2=O)Cc2c-1nc1cc(F)c(C)c(C=C(C)C)c1c2CN
Result: rule met

Q: Strictly below 5 nM: is that where IC50 of C=C(C)c1c(C)c(F)cc2nc3c(c(CN)c12)Cn1c-3cc2c(c1=O)COC(=O)[C@]2(O)CC sits?
Result: rule met

Q: Bench note: check whether CCc1c(C)c(F)cc2nc3c(c(CN)c12)Cn1c-3cc2c(c1=O)COC(=O)[C@]2(O)CC shows IC50 below 5 nM
Result: rule not met

Q: I wonder whether CC[C@@]1(O)C(=O)OCc2c1cc1n(c2=O)Cc2c-1nc1cc(F)c(C)c(Cl)c1c2CNC(C)=O [Compound 12a] has IC50 below 5 nM. Can you tell?
Result: rule met

Q: Report whether reported IC50 is lower than 5 nM (strictly) for CC[C@@]1(O)C(=O)OCc2c1cc1n(c2=O)Cc2c-1nc1cc3c(cc1c2CNC(C)=O)OCO3 [Compound 12b]
Result: rule not met

Q: For this compound, is IC50 lower than 5 nM? CC[C@@]1(O)C(=O)OCc2c1cc1n(c2=O)Cc2c-1nc1cc3c(cc1c2CNC(C)=O)CCO3
Result: rule not met

Next:
Q: Hi there! Is IC50 for CC[C@@]1(O)C(=O)OCc2c1cc1n(c2=O)Cc2c-1nc1cc(F)c(C)c(Cl)c1c2CNC(=O)CN [Compound 13a] below 5 nM, do you know?
Result: rule met

----------
Reported pIC50 is given for each of the following compounds.
System: acute myeloid leukemia cells (MOLM-13)
Assay: In vitro potency (CellTiter-Glo, 96 h), MOLM-13
Format: cell-based
Settings: Homo sapiens, MOLM-13, 96 h, read-out: MOLM-13 IC50, Table 28; CPT free drugs; acute myeloid leukemia cells MOLM-13; 96 h, CellTiter-Glo
Method: In vitro potency was assessed on multiple cancer cell lines. All cell lines were authenticated by STR profiling at IDEXX Bioresearch and cultured for no more than 2 months after resuscitation. […] After 96 hours, growth inhibition was assessed by CellTiterGlo® (Promega, Madison, WI) and luminescence was measured on a plate reader. In Table 7, IC50 values for ADCs are given in ng/mL. Cell viability was determined by CellTiter-Glo staining after 96 h exposure to ADC. ND=Not Determined. […]
To interpret pIC50, take it as minus log10 of a concentration measured in moles per litre.

# example entries with known answers
Response field pIC50 (acute myeloid leukemia cells (MOLM-13)) for item C=Cc1c(C)c(F)cc2nc3c(c(CN)c12)Cn1c-3cc2c(c1=O)COC(=O)[C@]2(O)CC : 8.70

Field pIC50 (system: acute myeloid leukemia cells (MOLM-13)) for entry CC[C@@]1(O)C(=O)OCc2c1cc1n(c2=O)Cc2c-1nc1cc3c(cc1c2CN)COC3 = 6.89

# value of pIC50, acute myeloid leukemia cells (MOLM-13), item CC[C@@]1(O)C(=O)OCc2c1cc1n(c2=O)Cc2c-1nc1cc3c(c(Br)c1c2CN)OCO3 = 8.70

---
Observed pIC50, acute myeloid leukemia cells (MOLM-13), CC[C@@]1(O)C(=O)OCc2c1cc1n(c2=O)Cc2c-1nc1cc3c(cc1c2CN)CCO3 : 7.54

----------
tested on: anaplastic large cell lymphoma cells (Karpas299); assay: In vitro potency (CellTiter-Glo, 96 h), Karpas299; assay type: cell-based; conditions: Homo sapiens, KARPAS-299, 96 h, CPT free drugs, Table 24; CellTiter-Glo after 96 h exposure; read-out: IC50 (nmol/L) Karpas299
The entries below are paired with their reported log10 of IC50.
Each number you see is log10 of IC50, and the unit inside the log is nmol/L.

Past entries and their recorded results:
Briefly, log10 of IC50 measured for CC[C@@]1(O)C(=O)OCc2c1cc1n(c2=O)Cc2c-1nc1ccc3c(c1c2CN)CCC3 : 0.85

For CC[C@@]1(O)C(=O)OCc2c1cc1n(c2=O)Cc2c-1nc1cc(F)c(OC)cc1c2CN the compound record lists log10 of IC50 as 0.70

Sure, the documented log10 of IC50 for CC[C@@]1(O)C(=O)OCc2c1cc1n(c2=O)Cc2c-1nc1ccc(O)cc1c2CN is 1.77

Record CC[C@@]1(O)C(=O)OCc2c1cc1n(c2=O)Cc2c-1nc1cc3c(cc1c2CN)OCO3 [AMDCPT, reference compound] . Reported log10 of IC50: 0.26

Value of log10 of IC50 reported for the compound CC[C@@]1(O)C(=O)OCc2c1cc1n(c2=O)Cc2c-1nc1cc(C)c(C)c(F)c1c2CN is 1.57

Moving on to the next compound.
// log10 of IC50 lookup, compound = CC[C@@]1(O)C(=O)OCc2c1cc1n(c2=O)Cc2c-1nc1ccccc1c2CN , result: 1.15

----------
system: anaplastic large cell lymphoma cells (Karpas299); assay: In vitro potency (CellTiter-Glo, 96 h), Karpas299; format: cell-based; conditions: Homo sapiens, KARPAS-299, 96 h, camptothecin free drug, 96 h; read-out: Karpas299 IC50
MEASUREMENT_LABEL: pIC50
Friendly reminder that pIC50 comes from taking -log10 of the concentration in mol/L.

Per the records, this compound ( CC[C@@]1(O)C(=O)OCc2c1cc1n(c2=O)Cc2c-1nc1cc3c(cc1c2CNCCCN1CCN(C(=O)OC(C)(C)C)CC1)OCO3 ) has pIC50 equal to 6.77

The compound CC[C@@]1(O)C(=O)OCc2c1cc1n(c2=O)Cc2c-1nc1cc3c(cc1c2CNCCCN(C)C(=O)OC(C)(C)C)OCO3 showed pIC50 equal to 6.87

// pIC50 lookup, compound = CC[C@@]1(O)C(=O)OCc2c1cc1n(c2=O)Cc2c-1nc1cc3c(cc1c2CNCCN1CCN(C(=O)OC(C)(C)C)CC1)OCO3 , result: 6.79

Query CC[C@@]1(O)C(=O)OCc2c1cc1n(c2=O)Cc2c-1nc1cc3c(cc1c2CN1CCN(CCNC(=O)OC(C)(C)C)CC1)OCO3 yields pIC50 of 6.90

Value of pIC50 reported for the compound CC[C@@]1(O)C(=O)OCc2c1cc1n(c2=O)Cc2c-1nc1cc3c(cc1c2CNC1CCN(C(=O)OC(C)(C)C)CC1)OCO3 is 7.59

Continuing:
The compound listed as CC[C@@]1(O)C(=O)OCc2c1cc1n(c2=O)Cc2c-1nc1cc3c(cc1c2CN)OCO3 [AMDCPT, reference compound] shows pIC50 equal to 8.70

// pIC50 value for CC[C@@]1(O)C(=O)OCc2c1cc1n(c2=O)Cc2c-1nc1cc3c(cc1c2CN1CCC(NC(=O)OC(C)(C)C)CC1)OCO3 : 7.44
